src = ChEMBL document CHEMBL1138518

assay: Dissociation constant, pKa of the compound; type: physicochemical
Quick rule: pKa of at least 8 means label 1, below that means label 0.

Record CO[C@H]1/C=C\C=C(/C)C(=O)NC2=CC(=O)C(NCCN(C)C)=C(C[C@@H](C)C[C@H](OC)[C@H](NCCF)[C@@H](C)/C=C(\C)[C@@H]1OC(N)=O)C2=O (stereo in doubt) ; criterion: pKa no lower than 8. Met?
label 1

pKa >= 8 for CO[C@H]1/C=C\C=C(/C)C(=O)NC2=CC(=O)C(NCCN(C)C)=C(C[C@@H](C)C[C@H](OC)[C@H](NCCN(C)C)[C@@H](C)/C=C(\C)[C@@H]1OC(N)=O)C2=O (stereo in doubt) ?
label 0

Form field: pKa at least 8? Entry: CO[C@H]1/C=C\C=C(/C)C(=O)NC2=CC(=O)C(NCCN(C)C)=C(C[C@@H](C)C[C@H](OC)[C@H](NCC(F)(F)F)[C@@H](C)/C=C(\C)[C@@H]1OC(N)=O)C2=O (stereo in doubt)
label 0

Evaluate CO[C@H]1/C=C\C=C(/C)C(=O)NC2=CC(=O)C(NCCN(C)C)=C(C[C@@H](C)C[C@H](OC)[C@H](NCCC(F)(F)F)[C@@H](C)/C=C(\C)[C@@H]1OC(N)=O)C2=O (stereo in doubt) : pKa at minimum 8?
label 1

Evaluate CO[C@H]1/C=C\C=C(/C)C(=O)NC2=CC(=O)C(NCCN(C)C)=C(C[C@@H](C)C[C@H](OC)[C@H](NCC(F)F)[C@@H](C)/C=C(\C)[C@@H]1OC(N)=O)C2=O (stereo in doubt) : pKa at minimum 8?
label 0

Say whether CO[C@H]1/C=C\C=C(/C)C(=O)NC2=CC(=O)C(NCCN(C)C)=C(C[C@@H](C)C[C@H](OC)[C@H](N)[C@@H](C)/C=C(\C)[C@@H]1OC(N)=O)C2=O (stereo in doubt) shows pKa of 8 or more.
label 1

###

tested on: SK-BR-3; test: Cytotoxicity against human SKBR3 cells after 72 hrs by celltiter-glo assay; assay type: functional, cell-based; conditions: Homo sapiens, SK-BR-3, 72 h
IC50 for assorted compounds
Numeric only. Scale: nM

{"Compound": "CO[C@H]1/C=C\\C=C(/C)C(=O)NC2=CC(=O)C(NCCN(C)C)=C(C[C@@H](C)C[C@H](OC)[C@H](NCC(F)(F)F)[C@@H](C)/C=C(\\C)[C@@H]1OC(N)=O)C2=O (stereo in doubt)", "Endpoint result": 270}

Tell me reported IC50 for CO[C@H]1/C=C\C=C(/C)C(=O)NC2=CC(=O)C(NCCF)=C(C[C@@H](C)C[C@H](OC)[C@H](O)[C@@H](C)/C=C(\C)[C@@H]1OC(N)=O)C2=O (stereo in doubt) , tested with SK-BR-3.
17

Which IC50 is reported with SK-BR-3 for this entry: C=CCNC1=C2C[C@@H](C)C[C@H](OC)[C@H](OC(=O)CN)[C@@H](C)/C=C(\C)[C@H](OC(N)=O)[C@@H](OC)/C=C\C=C(/C)C(=O)NC(=CC1=O)C2=O (stereo in doubt) ?
350

For the record CO[C@H]1/C=C\C=C(/C)C(=O)NC2=CC(=O)C(NCCN(C)C)=C(C[C@@H](C)C[C@H](OC)[C@H](N)[C@@H](C)/C=C(\C)[C@@H]1OC(N)=O)C2=O (stereo in doubt) , what value of IC50 is listed for SK-BR-3?
415

For the record CO[C@H]1[C@@H](OC)C[C@H](C)CC2=C(N)C(=O)C=C(NC(=O)/C(C)=C/C=C\[C@H](OC)[C@@H](OC(N)=O)/C(C)=C/[C@@H]1C)C2=O , what value of IC50 is listed for SK-BR-3?
84

SK-BR-3 / IC50 / CO[C@H]1/C=C\C=C(/C)C(=O)NC2=CC(=O)C(NCCN3CCC3)=C(C[C@@H](C)C[C@H](OC)[C@H](O)[C@@H](C)/C=C(\C)[C@@H]1OC(N)=O)C2=O (stereo in doubt) : value?
26

Give IC50 (SK-BR-3) of the following compound: CO[C@H]1C[C@H](C)CC2=C(N3CCC3)C(=O)C=C(NC(=O)/C(C)=C/C=C\[C@H](OC)[C@@H](OC(N)=O)/C(C)=C/[C@H](C)C1=O)C2=O (stereo in doubt)
260

I'm curious: which IC50 was measured for CO[C@H]1/C=C\C=C(/C)C(=O)NC2=CC(=O)C(N3CCC3)=C(C[C@@H](C)C[C@H](OC)[C@H](O)[C@@H](C)/C=C(\C)[C@@H]1OC(N)=O)C2=O (stereo in doubt) tested on SK-BR-3?
24

###

target: Heat shock protein HSP 90-beta (Homo sapiens, UniProt P08238); assay: Binding affinity to human recombinant HSP90
Sequence (P08238 whole entry): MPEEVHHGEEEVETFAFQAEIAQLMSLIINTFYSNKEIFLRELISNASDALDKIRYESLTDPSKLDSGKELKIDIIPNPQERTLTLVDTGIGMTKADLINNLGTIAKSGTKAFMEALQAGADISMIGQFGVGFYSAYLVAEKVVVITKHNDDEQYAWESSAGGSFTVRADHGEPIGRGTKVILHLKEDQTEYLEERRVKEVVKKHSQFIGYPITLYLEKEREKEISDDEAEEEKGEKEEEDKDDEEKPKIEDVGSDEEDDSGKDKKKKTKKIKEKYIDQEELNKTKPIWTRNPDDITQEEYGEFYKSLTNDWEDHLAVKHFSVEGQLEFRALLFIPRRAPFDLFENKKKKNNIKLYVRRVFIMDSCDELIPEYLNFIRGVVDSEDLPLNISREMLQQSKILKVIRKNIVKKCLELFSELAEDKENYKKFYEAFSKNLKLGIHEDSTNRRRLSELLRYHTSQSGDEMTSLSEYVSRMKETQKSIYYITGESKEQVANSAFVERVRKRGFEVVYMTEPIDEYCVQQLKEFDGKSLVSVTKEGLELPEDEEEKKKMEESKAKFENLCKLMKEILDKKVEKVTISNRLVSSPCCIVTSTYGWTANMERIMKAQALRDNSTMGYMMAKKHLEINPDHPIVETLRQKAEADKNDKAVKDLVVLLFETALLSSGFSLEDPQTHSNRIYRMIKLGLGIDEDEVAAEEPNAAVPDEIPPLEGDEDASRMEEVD
pKd: −log10 of the molar value.
Experimental readout: pKd

Look up pKd for this molecule: COC1=C2C[C@@H](C)C[C@H](OC)[C@H](OC(=O)CN)[C@@H](C)/C=C(\C)[C@H](OC(N)=O)[C@@H](OC)/C=C\C=C(/C)C(=O)NC(=CC1=O)C2=O (stereo in doubt)
< 4.60

Item CNCCNC1=C2C[C@@H](C)C[C@H](OC)[C@H](OC(=O)CN)[C@@H](C)/C=C(\C)[C@H](OC(N)=O)[C@@H](OC)/C=C\C=C(/C)C(=O)NC(=CC1=O)C2=O (stereo in doubt) has what recorded pKd?
< 4.60

Which pKd value is on record for C=CCNC1=C2C[C@@H](C)C[C@H](OC)/C(=N/O)[C@@H](C)/C=C(\C)[C@H](OC(N)=O)[C@@H](OC)/C=C\C=C(/C)C(=O)NC(=CC1=O)C2=O ?
< 5.00

Give its pKd value. Item: CO[C@H]1C[C@H](C)CC2=C(NCCN(C)C)C(=O)C=C(NC(=O)/C(C)=C/C=C\[C@H](OC)[C@@H](OC(N)=O)/C(C)=C/[C@H](C)/C1=N\OCc1ccccc1)C2=O (stereo in doubt)
< 4.00

Look up pKd: CO[C@H]1/C=C\C=C(/C)C(=O)NC2=CC(=O)C(NCCN(C)C)=C(C[C@@H](C)C[C@H](OC)[C@H](NCCF)[C@@H](C)/C=C(\C)[C@@H]1OC(N)=O)C2=O (stereo in doubt)
< 4.30

So what does the record say about pKd for CO[C@H]1/C=C\C=C(/C)C(=O)NC2=CC(=O)C(NCCN(C)C)=C(C[C@@H](C)C[C@H](OC)[C@H](N)[C@@H](C)/C=C(\C)[C@@H]1OC(N)=O)C2=O (stereo in doubt) ?
< 4.60

###

molecular target: Heat shock protein HSP 90-beta (Homo sapiens, UniProt P08238); assay: Binding affinity to human recombinant HSP90
pKd: −log10 of the molar value.
Experimental readout: pKd

Example cases with answers are listed next.
{"Molecule": "CO[C@H]1C[C@H](C)CC2=C(NCCF)C(=O)C=C(NC(=O)/C(C)=C/C=C\\[C@H](OC)[C@@H](OC(N)=O)/C(C)=C/[C@H](C)/C1=N\\O)C2=O", "Endpoint result": "< 4.60"}
{"Molecule": "COC1=C2C[C@@H](C)C[C@H](OC)[C@H](OC(=O)CCN)[C@@H](C)/C=C(\\C)[C@H](OC(N)=O)[C@@H](OC)/C=C\\C=C(/C)C(=O)NC(=CC1=O)C2=O (stereo in doubt)", "Endpoint result": "< 4.60"}

Consider the molecule shown here: COC1=C2C[C@@H](C)C[C@H](OC)[C@H](OC(=O)CCCN)[C@@H](C)/C=C(\C)[C@H](OC(N)=O)[C@@H](OC)/C=C\C=C(/C)C(=O)NC(=CC1=O)C2=O (stereo in doubt) What is its recorded pKd?
< 5.00

Which measured pKd value corresponds to CO[C@H]1C[C@H](C)CC2=C(N3CCC3)C(=O)C=C(NC(=O)/C(C)=C/C=C\[C@H](OC)[C@@H](OC(N)=O)/C(C)=C/[C@H](C)/C1=N\O)C2=O ?
< 4.60
